Reported inhibition at 0.111 µM values are given for each entry in this list.
- Target Or Test System: recombinant human SAE enzyme (Homo sapiens, UniProt Q9UBT2)
- Sequence (Q9UBT2 whole entry): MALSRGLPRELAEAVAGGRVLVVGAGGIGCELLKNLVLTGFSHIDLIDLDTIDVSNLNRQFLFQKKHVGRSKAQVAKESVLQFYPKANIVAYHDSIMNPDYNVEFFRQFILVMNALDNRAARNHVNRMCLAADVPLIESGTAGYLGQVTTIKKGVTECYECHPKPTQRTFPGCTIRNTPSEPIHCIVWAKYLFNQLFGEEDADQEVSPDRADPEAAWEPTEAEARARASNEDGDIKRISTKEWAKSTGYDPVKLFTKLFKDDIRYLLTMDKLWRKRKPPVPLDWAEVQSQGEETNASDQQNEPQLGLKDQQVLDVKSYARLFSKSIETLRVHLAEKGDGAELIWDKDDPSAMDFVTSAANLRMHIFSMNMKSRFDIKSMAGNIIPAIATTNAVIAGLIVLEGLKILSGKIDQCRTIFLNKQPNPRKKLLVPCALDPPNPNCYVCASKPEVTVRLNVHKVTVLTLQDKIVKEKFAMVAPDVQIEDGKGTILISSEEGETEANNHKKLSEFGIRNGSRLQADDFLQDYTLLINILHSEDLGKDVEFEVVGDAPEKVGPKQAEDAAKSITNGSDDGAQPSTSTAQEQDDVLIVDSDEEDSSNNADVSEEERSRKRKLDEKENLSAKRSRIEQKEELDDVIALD
- Sequence (Q9UBE0 whole entry partner): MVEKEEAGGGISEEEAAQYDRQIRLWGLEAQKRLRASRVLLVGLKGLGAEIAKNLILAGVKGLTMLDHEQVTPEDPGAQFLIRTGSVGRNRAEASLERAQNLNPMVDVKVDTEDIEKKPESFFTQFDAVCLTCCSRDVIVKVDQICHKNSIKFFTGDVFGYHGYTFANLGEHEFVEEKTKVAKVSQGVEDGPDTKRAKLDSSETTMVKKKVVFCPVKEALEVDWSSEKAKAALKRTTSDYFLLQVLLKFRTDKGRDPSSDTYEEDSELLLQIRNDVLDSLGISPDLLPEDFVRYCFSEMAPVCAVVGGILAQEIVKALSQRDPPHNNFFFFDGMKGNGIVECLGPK
- Test Details: SAE HTRF Enzyme Assay
- Type: biochemical
- Run Parameters: compound concentration 0.111 μM; read-out: Percent Inhibition
Express it in %; write the number only.

Consider the following illustrative entries.
Cc1cc(C(=O)c2cncnc2N[C@@H]2C[C@H](COS(N)(=O)=O)[C@@H](O)[C@H]2O)nn1Cc1ccc(C(F)(F)F)o1 : 99
NS(=O)(=O)OC[C@H]1C[C@@H](Nc2ncncc2C(=O)c2ccn(Cc3cc(F)c(F)c(F)c3)n2)[C@H](O)[C@@H]1O : 95
NS(=O)(=O)OC[C@H]1C[C@@H](Nc2ncncc2C(=O)c2ccn(C3CCc4ccccc43)n2)[C@H](O)[C@@H]1O (single isomer, unassigned) : 82
NS(=O)(=O)OC[C@H]1C[C@@H](Nc2ccncc2C(=O)c2ccn(Cc3ccc(F)c(Cl)c3)n2)C[C@@H]1O : 96

Consider the record given below.
INPUT: What value of inhibition at 0.111 µM has been recorded for this entry: NS(=O)(=O)OC[C@H]1C[C@@H](Nc2ncncc2C(=O)c2ccn(Cc3ccc(Cl)c(F)c3)n2)[C@H](O)[C@@H]1O
OUTPUT: 97
